The reported numbers originate from patent US20200024330A1.

Study system: HIV-1 JR-CSF Env I424A (HIV-1 (isolate JR-CSF)) (UniProt P20871)
Assay notes: cell-based or functional assay
Can you tell me Fold IC50 increase relative to wild-type for the items I'm about to list?
The response must be a number in fold with no trailing unit.

Please look up its Fold IC50 increase relative to wild-type: PGT-135 (antibody, V domains shown) VH: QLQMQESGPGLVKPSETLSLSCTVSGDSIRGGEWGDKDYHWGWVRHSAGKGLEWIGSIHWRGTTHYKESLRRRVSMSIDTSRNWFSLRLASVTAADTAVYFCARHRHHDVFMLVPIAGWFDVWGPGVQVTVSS VL: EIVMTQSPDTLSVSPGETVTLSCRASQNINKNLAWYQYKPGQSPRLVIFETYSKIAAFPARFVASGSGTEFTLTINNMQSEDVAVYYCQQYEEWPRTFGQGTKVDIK
0.1

Next binder: PGT-130 (antibody, V domains shown) VH: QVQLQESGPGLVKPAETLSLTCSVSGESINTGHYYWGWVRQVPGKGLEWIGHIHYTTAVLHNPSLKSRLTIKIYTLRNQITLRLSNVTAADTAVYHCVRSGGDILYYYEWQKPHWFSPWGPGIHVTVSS VL: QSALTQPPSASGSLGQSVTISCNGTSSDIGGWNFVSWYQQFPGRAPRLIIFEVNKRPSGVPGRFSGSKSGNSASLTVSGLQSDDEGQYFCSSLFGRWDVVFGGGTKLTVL
3.9

Next binder: PGT-123 (antibody, V domains shown) VH: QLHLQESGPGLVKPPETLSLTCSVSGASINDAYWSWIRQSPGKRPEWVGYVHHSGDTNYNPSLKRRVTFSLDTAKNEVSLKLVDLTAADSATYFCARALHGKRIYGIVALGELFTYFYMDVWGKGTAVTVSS VL: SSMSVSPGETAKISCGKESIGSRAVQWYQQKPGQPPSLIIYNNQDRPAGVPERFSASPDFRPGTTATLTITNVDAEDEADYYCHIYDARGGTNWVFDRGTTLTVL
0.5

Next binder: PGT-126 (antibody, V domains shown) VH: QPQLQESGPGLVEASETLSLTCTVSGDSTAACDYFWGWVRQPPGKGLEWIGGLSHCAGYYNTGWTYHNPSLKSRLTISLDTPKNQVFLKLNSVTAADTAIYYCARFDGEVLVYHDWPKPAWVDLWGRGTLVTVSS VL: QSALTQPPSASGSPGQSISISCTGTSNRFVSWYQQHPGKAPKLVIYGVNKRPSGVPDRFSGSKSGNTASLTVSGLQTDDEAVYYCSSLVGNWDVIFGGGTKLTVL
0.4

Next binder: PGT-127 (antibody, V domains shown) VH: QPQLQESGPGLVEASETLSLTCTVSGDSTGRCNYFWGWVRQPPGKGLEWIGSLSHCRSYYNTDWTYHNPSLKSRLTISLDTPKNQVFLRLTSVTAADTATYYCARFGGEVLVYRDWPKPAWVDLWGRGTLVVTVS VL: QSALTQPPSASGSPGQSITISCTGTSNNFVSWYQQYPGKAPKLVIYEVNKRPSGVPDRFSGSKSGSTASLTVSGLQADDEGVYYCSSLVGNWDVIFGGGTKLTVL
2

Next binder: PGT-131 (antibody, V domains shown) VH: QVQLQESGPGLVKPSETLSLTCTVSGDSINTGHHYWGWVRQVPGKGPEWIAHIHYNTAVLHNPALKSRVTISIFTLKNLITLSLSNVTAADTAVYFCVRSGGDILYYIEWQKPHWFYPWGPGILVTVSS VL: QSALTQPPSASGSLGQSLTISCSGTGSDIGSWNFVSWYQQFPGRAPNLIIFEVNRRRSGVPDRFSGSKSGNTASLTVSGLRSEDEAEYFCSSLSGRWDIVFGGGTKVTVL
4.8

Next binder: PGT-128 (antibody, V domains shown) VH: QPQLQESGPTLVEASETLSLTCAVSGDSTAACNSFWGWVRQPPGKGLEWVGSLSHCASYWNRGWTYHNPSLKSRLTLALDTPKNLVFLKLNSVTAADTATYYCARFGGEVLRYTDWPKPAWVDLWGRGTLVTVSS VL: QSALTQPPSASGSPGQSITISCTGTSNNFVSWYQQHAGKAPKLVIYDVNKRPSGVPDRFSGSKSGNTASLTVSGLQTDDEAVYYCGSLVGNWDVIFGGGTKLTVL
1.3

Next binder: PGT-125 (antibody, V domains shown) VH: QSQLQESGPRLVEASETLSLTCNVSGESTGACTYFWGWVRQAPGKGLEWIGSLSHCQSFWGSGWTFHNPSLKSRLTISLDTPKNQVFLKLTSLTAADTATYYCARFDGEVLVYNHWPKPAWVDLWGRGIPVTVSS VL: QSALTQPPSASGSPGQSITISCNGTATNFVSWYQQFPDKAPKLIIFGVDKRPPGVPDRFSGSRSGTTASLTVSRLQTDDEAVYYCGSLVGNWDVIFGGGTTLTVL
0.7
